measured-on: T1, murine IL-11 (mouse, UniProt P47873 22-199)
T1 construct: bought from Invigate; also called mIL-11; mIL11
T1 sequence: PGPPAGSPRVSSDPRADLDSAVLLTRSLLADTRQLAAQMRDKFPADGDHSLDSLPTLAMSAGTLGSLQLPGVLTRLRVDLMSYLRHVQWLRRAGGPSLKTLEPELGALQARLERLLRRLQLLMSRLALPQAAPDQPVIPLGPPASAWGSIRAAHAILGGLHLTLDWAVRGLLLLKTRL
assay: SPR, antibody captured, IL-11 as analyte
measured-parameter: pKd
Scale: negative log10 of molar concentration, which is what pKd denotes.

• TPP-26316 (antibody, V domains shown, constant regions not restated) VH: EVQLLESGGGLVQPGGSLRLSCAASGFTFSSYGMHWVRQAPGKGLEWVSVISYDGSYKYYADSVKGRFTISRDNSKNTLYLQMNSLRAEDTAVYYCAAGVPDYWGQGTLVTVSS VL: QSVLTQPPSASGTPGQRVTISCTGSSSNIGAGYDVHWYQQLPGTAPKLLIYSNNERPSGVPDRFSGSKSGTSASLAISGLRSEDEADYYCAAWDMSLNGPVFGGGTKLTVL = 9.14

Using the record for TPP-26296 (antibody, V domains shown, constant regions not restated) VH: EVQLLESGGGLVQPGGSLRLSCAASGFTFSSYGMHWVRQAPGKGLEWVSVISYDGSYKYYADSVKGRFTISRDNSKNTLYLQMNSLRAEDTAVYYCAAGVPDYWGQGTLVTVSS VL: QSVLTQPPSASGTPGQRVTISCTGSSSNIGAGYDVHWYQQLPGTAPKLLIYSNNERPSGVPDRFSGSKSGTSASLAISGLRSEDEADYYCAAWDNSLNGPVFGGGTKLTVL , report its pKd.
9.15

And then TPP-26313 (antibody, V domains shown, constant regions not restated) VH: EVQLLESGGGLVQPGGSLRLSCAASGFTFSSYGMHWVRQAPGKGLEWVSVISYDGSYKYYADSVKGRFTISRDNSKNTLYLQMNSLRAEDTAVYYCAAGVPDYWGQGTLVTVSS VL: QSVLTQPPSASGTPGQRVTISCTGSSSNIGAYYDVHWYQQLPGTAPKLLIYSNNERPSGVPDRFSGSKSGTSASLAISGLRSEDEADYYCAAWDDSLNGPVFGGGTKLTVL , what is it?
9.34
